Experiment: Pharmacokinetic test in blood by a single oral administration to guinea pigs
Format: in vivo
Conditions: male, Hartley, guinea pig, po, 100 mg/kg orally, plasma, read-out: AUC 0-24 h
Recorded Metric: AUC(0-t) (µg·h/mL)

| Molecule | Unit String | AUC(0-t) |
| --- | --- | --- |
| O=C(Cc1cc[n+]([O-])cc1)NCC(COCc1cc(C(F)(F)F)cc(C(F)(F)F)c1)c1ccccc1 (centres unmarked) [Compound 39] | µg·h/mL | 379 |

a: O=C(CCc1cc[n+]([O-])cc1)NCC(COCc1cc(C(F)(F)F)cc(C(F)(F)F)c1)c1ccccc1 (centres unmarked) [Compound 51]
b: Cl.O=C(NCC(COCc1cc(C(F)(F)F)cc(C(F)(F)F)c1)c1ccccc1)C1CCNCC1 (centres unmarked) [Compound 4]
c: Cl.O=C(NCC(COCc1cc(C(F)(F)F)cc(C(F)(F)F)c1)c1ccccc1)c1ccc(CN2CCCC2)cc1 (centres unmarked) [Compound 64]
d: O=C(Cc1cc[n+]([O-])cc1)NCC(COCc1cc(C(F)(F)F)cc(C(F)(F)F)c1)c1ccc(F)cc1 (centres unmarked) [Compound 40]
Reorder the items by AUC(0-t), least to greatest. Give the order by naming the labels one after another as requested.
c, b, a, d
(c: 19.7 µg·h/mL, b: 28.2 µg·h/mL, a: 103 µg·h/mL, d: 279 µg·h/mL)

###

Test: Pharmacokinetic test in blood by a single oral administration to guinea pigs
Assay type: in vivo
Conditions: male, Hartley, guinea pig, po, 100 mg/kg orally, plasma, read-out: Tmax
Recorded Metric: Tmax (h)

Consider the reported Tmax for these compounds:
| Compound | Tmax / h |
| --- | --- |
| O=C(Cc1ccc[n+]([O-])c1)NCC(COCc1cc(C(F)(F)F)cc(C(F)(F)F)c1)c1ccc(F)cc1 (centres unmarked) | 4 |
| O=C(NCC(COCc1cc(C(F)(F)F)cc(C(F)(F)F)c1)c1ccccc1)c1cc[n+]([O-])cc1 (centres unmarked) | 2 |

P: O=C(NCC(COCc1cc(C(F)(F)F)cc(C(F)(F)F)c1)c1ccccc1)c1ccc[n+]([O-])c1 (centres unmarked)
Q: O=C(CCc1cc[n+]([O-])cc1)NCC(COCc1cc(C(F)(F)F)cc(C(F)(F)F)c1)c1ccccc1 (centres unmarked)
R: O=C(Cc1cc[n+]([O-])cc1)NCC(COCc1cc(C(F)(F)F)cc(C(F)(F)F)c1)c1ccc(F)cc1 (centres unmarked)
Reorder the items by Tmax, least to greatest. Give the order by naming the labels one after another as requested.
Q, P, R
(Q: 1 h, P: 2 h, R: 4 h)

###

Experiment: Pharmacokinetic test in blood by a single oral administration to guinea pigs
Type: in vivo
Conditions: male, Hartley, guinea pig, po, 100 mg/kg orally, plasma, read-out: Cmax
Recorded Metric: Cmax (ng/mL)

Consider the reported Cmax for these molecules:
| Molecule | Unit String | Cmax |
| --- | --- | --- |
| O=C(NCC(COCc1cc(C(F)(F)F)cc(C(F)(F)F)c1)c1ccccc1)c1cc[n+]([O-])cc1 (stereo not drawn) [Compound 20] | ng/mL | 10900 |
| Cl.O=C(NCC(COCc1cc(C(F)(F)F)cc(C(F)(F)F)c1)c1ccccc1)c1ccc(CN2CCCC2)cc1 (stereo not drawn) [Compound 64] | ng/mL | 1700 |
| O=C(NCC(COCc1cc(C(F)(F)F)cc(C(F)(F)F)c1)c1ccc(F)cc1)c1ccc[n+]([O-])c1 (stereo not drawn) [Compound 23] | ng/mL | 17500 |
| O=C(NCC(COCc1cc(C(F)(F)F)cc(C(F)(F)F)c1)c1ccccc1)c1ccc[n+]([O-])c1 (stereo not drawn) [Compound 22] | ng/mL | 18300 |
| O=C(CCc1cc[n+]([O-])cc1)NCC(COCc1cc(C(F)(F)F)cc(C(F)(F)F)c1)c1ccccc1 (stereo not drawn) [Compound 51] | ng/mL | 13800 |
| Cl.O=C(NCC(COCc1cc(C(F)(F)F)cc(C(F)(F)F)c1)c1ccccc1)C1CCNCC1 (stereo not drawn) [Compound 4] | ng/mL | 2000 |
| O=C(Cc1cc[n+]([O-])cc1)NCC(COCc1cc(C(F)(F)F)cc(C(F)(F)F)c1)c1ccc(F)cc1 (stereo not drawn) [Compound 40] | ng/mL | 22800 |

A: O=C(Cc1cc[n+]([O-])cc1)NCC(COCc1cc(C(F)(F)F)cc(C(F)(F)F)c1)c1ccccc1 (stereo not drawn) [Compound 39]
B: O=C(Cc1ccc[n+]([O-])c1)NCC(COCc1cc(C(F)(F)F)cc(C(F)(F)F)c1)c1ccc(F)cc1 (stereo not drawn) [Compound 42]
# argmax over Cmax for candidates A and B Bench note: the answer is the label of the chosen record.
A
